System: SNB-75 CNS
Experiment: NCI-60 one-dose screen, 48 h
Conditions: 10 µM unless noted
Experimental: Growth inhibition of the SNB-75 human tumor cell line is measured as a screen for anti-cancer activity. Cells are grown in 96 well plates and exposed to the test compound for 48 hours. Compounds are tested at a single concentration, which is 10^-5 M for most compounds. The reported endpoint is percent growth (GI% or GIPRCNT), where numbers from 0 - 100% represent growth inhibition, and numbers from -100% - 0 represent cell death. For example, a value of 40 represents 60% growth inhibition. […]
Compounds without any hit were thinned out: in the full panel of roughly 83,000, 20% have a hit. Calls of active or inactive are those of the source. Rule for the calls: active = growth percent below 10; inactive = the rest.
Form entry, call: pick from active, inactive

# count of solved cases: 3
O=C1CSC(c2ccc(O)cc2)N1c1nnc(Cn2cnnc2)o1 (stereo not given)
inactive
CCOC(=O)C1C(=O)C=C(c2cnccn2)CC1c1ccc(OC)c(OC)c1 (stereo not given)
inactive
CN1C[C@@H](c2ccc(Cl)cc2)[C@]2(NC(=S)N(c3ccccc3)C2=O)[C@@]12C(=O)NC1C=CC(Br)=C[C@H]12 (stereo not given in full)
inactive

stdin: So what was the verdict on CNC(=O)NCC1OC(n2cnc3c(NC(=O)Nc4ccccc4)ncnc32)C2OC(C)(C)OC12 (stereo not given) in this test?
stdout: inactive

stdin: So what was the verdict on "CCCCCCNCc1cc(C(C)(C)C)cc(CNCCCCCC)c1O" in this test?
stdout: active
